Biological target: retinol dehydratase (Spodoptera frugiperda, UniProt Q26490)
Sequence (Q26490 1-351): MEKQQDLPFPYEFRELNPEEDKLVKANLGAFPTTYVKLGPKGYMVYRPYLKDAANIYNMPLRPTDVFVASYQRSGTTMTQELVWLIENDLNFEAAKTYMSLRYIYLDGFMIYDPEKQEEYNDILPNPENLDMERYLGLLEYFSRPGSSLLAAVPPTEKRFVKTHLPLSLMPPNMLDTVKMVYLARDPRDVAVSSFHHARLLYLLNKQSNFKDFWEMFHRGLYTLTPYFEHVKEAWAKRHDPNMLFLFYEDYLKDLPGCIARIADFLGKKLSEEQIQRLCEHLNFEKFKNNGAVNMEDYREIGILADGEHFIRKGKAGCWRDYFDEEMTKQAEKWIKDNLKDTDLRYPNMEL
Test: Fluorimetric titration of recombinant retinol dehydratase with retinol (direct binding, no cofactor)
Conditions: recombinant enzyme 0.5-1 μM, no cofactor; to be considered an upper limit; read-out: equilibrium dissociation constant (Kd)
measurement-kind: pKd
Just the number, please; pKd means minus log10 of the concentration in mol/L.

Observed pKd on retinol dehydratase (Spodoptera frugiperda, UniProt Q26490), entry CC1=C(/C=C/C(C)=C/C=C/C(C)=C/CO)C(C)(C)CCC1 [retinol] , equals 8.05
